EXPERIMENTAL SYSTEM: Estrogen receptor (Homo sapiens) (UniProt P03372)
Sequence (P03372 whole entry, looked up): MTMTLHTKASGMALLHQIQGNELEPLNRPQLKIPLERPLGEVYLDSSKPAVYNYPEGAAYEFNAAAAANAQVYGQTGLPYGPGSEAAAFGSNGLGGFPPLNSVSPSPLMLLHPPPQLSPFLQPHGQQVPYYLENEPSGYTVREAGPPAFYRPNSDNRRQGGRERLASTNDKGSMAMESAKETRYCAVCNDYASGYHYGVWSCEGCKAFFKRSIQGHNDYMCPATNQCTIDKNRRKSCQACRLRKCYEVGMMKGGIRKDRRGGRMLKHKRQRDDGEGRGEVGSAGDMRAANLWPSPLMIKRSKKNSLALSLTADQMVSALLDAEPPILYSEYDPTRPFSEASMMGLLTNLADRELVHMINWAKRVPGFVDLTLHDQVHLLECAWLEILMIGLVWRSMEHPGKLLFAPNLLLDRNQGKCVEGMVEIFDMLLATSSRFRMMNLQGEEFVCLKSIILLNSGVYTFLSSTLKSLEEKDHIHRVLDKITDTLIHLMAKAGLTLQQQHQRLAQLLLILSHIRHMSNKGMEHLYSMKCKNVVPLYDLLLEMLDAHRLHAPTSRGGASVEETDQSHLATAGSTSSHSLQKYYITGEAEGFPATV
PROTOCOL TEXT: qHTS assay to identify small molecule antagonists of the estrogen receptor alpha (ER-alpha) signaling pathway using the BG1 cell line in the presence of 0.1 nM 17-beta-estradiol (AID 1259244); also: nearly all actives have a fitted effect of over 50% in size
MEASUREMENT PARAMETERS: VM7Luc4E2 (BG1) ERE-luciferase, antagonist mode, 0.1 nM E2, 22 h; series mostly up to 92.4 µM
Inconclusive results are not listed. Calls of active or inactive are those of the source. Calls follow the shape of the dose curve; as a rule, active = well fitted inhibition curve with a large enough effect in the repeat runs; inconclusive = weak or mixed curves; inactive = no such curve, though single readings can be large or run the other way.
A correct response names exactly one class from true (1) (active), false (0) (inactive)

- COc1cc(CC#N)cc(OC)c1OC: false (0)
- CCOP(=O)(O)C(N)=O: false (0)
- CCC(C)Cl (centres undefined): false (0)
- CCCSP(=S)(OCC)Oc1ccc(SC)cc1 (centres undefined): false (0)
- NCCc1cc(O)c(O)cc1O: false (0)
- Clc1ccc2ccccc2c1: false (0)
- O=C([O-])c1ccccn1.O=C([O-])c1ccccn1.O=C([O-])c1ccccn1.[Cr+3]: false (0)
- CCCCCCCCCCCCCCCl: false (0)
- CC(Cc1ccccc1)NCc1ccccc1Cl (centres undefined): false (0)
- CC(C)(C)c1ccc(CCOc2ncnc3ccccc23)cc1: false (0)

Hi, sorry to bother you, what did the test record for C=CC(=O)NC(C)(C)CC(C)=O ? false (0)

Lab log entry: CN1C(=O)CN=C(c2ccccc2)c2cc([N+](=O)[O-])ccc21 — outcome as called in the assay? false (0)

Any idea what this test logged for CCOc1cccc(C2(N3CCN(c4ccccc4)CC3)CCC(C)CC2)c1 (centres undefined) ? false (0)

What did this assay record as the result for COc1cc(C[C@@H](C)N)c(OC)cc1Br ? false (0)

Given CCCCCCCCn1sccc1=O , state the outcome it received in this test. true (1)

Please let me know the test result on file for CCOC(=O)NC(O)C(Cl)(Cl)Cl (centres undefined) . false (0)

Which outcome did this test record for the compound COC1CC(=C(c2cccs2)c2cccs2)C[N+](C)(C)C1 (centres undefined) ? false (0)

---

PROTOCOL TEXT: qHTS assay for identifying genotoxic compounds that show differential cytotoxicity against isogenic chicken DT40 cell lines with known DNA damage response pathways - wild type cell line (AID 743012); also: nearly all actives have a fitted effect of over 60% in size
MEASUREMENT PARAMETERS: DT40 wild type chicken cells viability, CellTiter-Glo, 40 h; series mostly up to 68.4 µM
Records with an inconclusive call do not appear. The source made the active and inactive calls. The call rests on the fitted dose curve; in most records, active means well fitted cell-killing curve with a large enough effect in the repeat runs; inconclusive means weak or mixed curves, or effect the other way; inactive means no such curve, though single readings can be large or run the other way.
The categories you may choose from are true = active, false = inactive

Please review the following examples before continuing.
- CC(C)CCON=O: false
- CCOP(=O)(SC(C)CC)N1CCSC1=O (stereo not given): false
- Clc1ccccc1: false
- CCCCOC(=O)CCC(=O)OCCCC: false
- O=C(CCl)CCl: true

Would you mind telling me which call this test gave CC(=O)NNc1ccccc1 ? true

What classification did C1CS1 end up with in this test? false

// param item: O=CC=O ; yields the recorded call false

So what was the verdict on O=C1CC[C@@]2(O)[C@H]3Cc4ccc(O)c5c4[C@@]2(CCN3CC2CC2)[C@H]1O5 in this test? false

Entry CCC1(CC)C(=O)NC(=O)NC1=O : call = ? false

// return assay outcome for CCC(C)(C)O false

Record lookup: outcome of this test for N#CC1(N=NC2(C#N)CCCCC2)CCCCC1 ? false

Would you mind telling me which call this test gave O=C(O)C(O)C(O)C(=O)O (stereo not given) ? false

Answer briefly: the call reported for OCCSSCCO in this assay. false

Assay result, entry CCN(C(C)=O)c1cccc(-c2ccnc3c(C#N)cnn23)c1 — outcome? false

Dear colleague, could you share the recorded outcome for Clc1ccc(Cl)c(Cl)c1 when you have a moment? false

Which outcome was entered for the compound O=C(O)COc1cc(Cl)c(Cl)cc1Cl in this test? false

Would you mind telling me which call this test gave CC(Cc1ccccc1)NCc1ccccc1Cl (stereo not given) ? true

I would be grateful if you could indicate the recorded call for O=C(N/N=C/c1ccc([N+](=O)[O-])o1)c1cc([N+](=O)[O-])cc([N+](=O)[O-])c1O . false

Which outcome was entered for the compound CC(C)[C@@H](C(=O)O[C@@H](C#N)c1cccc(Oc2ccccc2)c1)c1ccc(Cl)cc1 in this test? false

Test call for this compound, please: CCCCC(CC)COC(=O)c1c(Br)c(Br)c(Br)c(Br)c1C(=O)OCC(CC)CCCC (stereo not given) false
